From: ChEMBL document CHEMBL1201862

# Test system: MOLT-4
# Assay method text: NCI tumour cell line growth inhibition, 48 h
The source made the active and inactive calls. Rule as the data show it: active = GI50 up to about 1.1 µM and inactive = higher.
Measured GI50 of individual entries
Measured property: GI50

- Nc1nc(Cl)c(N)c(NC23CC4CC(CC(C4)C2)C3)n1: 2.39 µM (inactive)
- O=C1C(=C/C=C2/SC(c3ccccc3)(c3ccccc3)c3ccccc32)C(=O)c2ccccc21: > 100 µM (inactive)
- CCC12CCC(O)C1N(C)CCC2Sc1ccccc1 (centres undefined): 28.5 µM (inactive)
- NCc1ccc(-c2ccc(CN)s2)s1: > 100 µM (inactive)
- COc1ccc(-c2cc(O)c3cc(Cl)ccc3n2)cc1: > 100 µM (inactive)
- C/C1=C\CC[C@@]2(C)O[C@@H]2[C@H]2OC(=O)C(C)C2C[C@H]1O (some centres undefined): > 100 µM (inactive)
- N=C(N)NCC1CCCCCCN1 (centres undefined): > 100 µM (inactive)
- COC(=O)c1ccc2cc(O)c(O)cc2c1: 15.5 µM (inactive)
- CCOC(=O)Nn1cnnc1C: > 100 µM (inactive)
- CC(CCOc1c2ccoc2cc2oc(=O)ccc12)C1=CC(=O)C(C)(C)O1 (centres undefined): > 100 µM (inactive)
- O=C1C(c2ccccc2)=[N+]([O-])c2ccc(Cl)cc21: 23.6 µM (inactive)
- COc1ccc(-c2ccccc2)c(N/N=C2\CCCNC2=O)c1: > 100 µM (inactive)
- COc1c(F)c(F)c(C(=O)/C=C2\Nc3ccccc3NC2=O)c(F)c1F: > 10 µM (inactive)
- Cn1c(=N)n[n+]([O-])c2ccccc21: 1.87 µM (inactive)
- COc1ccc(C2CC(C)(O)Oc3cc4c(cc32)OCO4)cc1 (centres undefined): 22.1 µM (inactive)
- CC(=O)Nc1cc(Cl)cc(Cl)c1O: > 100 µM (inactive)
- CSc1c(C#N)c(O)n(-c2ccc(C)cc2)c(=O)c1C#N: > 100 µM (inactive)
- c1ccc(/N=C2/SC(c3ccccc3)(c3ccccc3)c3ccccc32)cc1: > 100 µM (inactive)
- Cc1cn(C2OC(CO)C(O)C2F)c(=O)[nH]c1=O (centres undefined): 64.3 µM (inactive)
- C=C1C(=O)OC2/C=C(\C=O)CC/C=C(\C)C(O)C[C@@H]12 (some centres undefined): 2.77 µM (inactive)
- O=C(CCc1nnc2s/c(=C\c3ccccc3Cl)c(=O)n12)Nc1cc(Cl)ccc1Cl: > 100 µM (inactive)
- CSc1sc(=S)sc1C(=O)N(C)c1ccccc1: 84.5 µM (inactive)
- O=C(c1cscc1CCc1ccccc1)c1cscc1CCc1ccccc1: > 100 µM (inactive)
- CN(C)c1cccc(NC2=NCCO2)c1: 46.7 µM (inactive)
- C1CN(P2(N3CC3)=NP(N3CC3)(N3CC3)=NP(N3CC3)(N3CC3)=N2)CCO1 (centres undefined): 8.2 µM (inactive)
- C[C@]12CC(c3ccccc3O1)C(C(=O)NC13CC4CC(CC(C4)C1)C3)C(=O)N2 (some centres undefined): 12 µM (inactive)
- CC1(C)Oc2ccccc2N2O[C@@H]3C(=O)N(c4ccccc4)C(=O)[C@@H]3C21c1ccccc1 (some centres undefined): 27.1 µM (inactive)
- CC1(C)CC(=O)c2c(nc3ccc4ccccc4c3c2-c2ccc(NC(=O)CCCCCCCCC(=O)Nc3ccc(-c4c5c(nc6ccc7ccccc7c46)CC(C)(C)CC5=O)cc3)cc2)C1: > 100 µM (inactive)
- Nc1nc(Cl)cc(NC2(CO)CCC2)n1: > 100 µM (inactive)
- NS(=O)(=O)c1nnc(NS(=O)(=O)c2cccc3cccnc23)s1: > 100 µM (inactive)
- Clc1cccc(Cl)c1C1SCC2=Nc3ccccc3CN21 (centres undefined): 31.3 µM (inactive)
- Clc1ccc2cccc3c2c1C1OC3c2ccccc21 (centres undefined): > 100 µM (inactive)
- CC(=O)NNc1nc(C)c(C(/C=C/c2ccc([N+](=O)[O-])cc2)=N/NC(N)=O)s1: > 100 µM (inactive)
- Cc1ccc(NCC2(/N=C/c3ccccc3)OC(CO)C(O)C2O)cc1 (centres undefined): 40.1 µM (inactive)
- N=C(N)NS(=O)(=O)c1ccc(NC(=O)c2ccc3nc4ccccc4c(Nc4ccc(S(N)(=O)=O)cc4)c3c2)cc1: > 100 µM (inactive)
- O=C1CCCCN1C(=O)c1ccc([N+](=O)[O-])cc1: > 100 µM (inactive)
- CC1=NOC(=O)/C1=C/c1ccc([N+](=O)[O-])cc1: > 100 µM (inactive)
- N=C(N)SCc1ccc2c(c1)Sc1ccccc1O2: 7.71 µM (inactive)
- Cc1ccc(C)c(/C(=N\N=C(N)N)C2CC2)c1: 35.2 µM (inactive)
- O=C(O)C1c2ccccc2C(C(=O)O)c2ccccc21 (centres undefined): > 100 µM (inactive)
- O=C(/C=C/c1ccc(Cl)cc1)Oc1ccc(C=C2CCC/C(=C\c3ccc(OC(=O)/C=C/c4ccc(Cl)cc4)cc3)C2=O)cc1: > 100 µM (inactive)
- CN1c2ccccc2N(C)C23N(C)c4ccccc4N(C)C12N(C)c1ccccc1N3C (centres undefined): > 100 µM (inactive)
- COc1cc(/C=N/c2ccc(Oc3ccc(Cl)cc3)c(Cl)c2)cc(OC)c1OC: 24.9 µM (inactive)
- CO/C(=C/C(=O)C(Cl)(Cl)Cl)CC/C(=C\C(=O)C(Cl)(Cl)Cl)OC: 21.4 µM (inactive)
